# measured target: UniProtKB Q72547
# assay notes: Concentration which reduced the cytopathic effect of HIV-1 in MT-4 infected cells
# Assay type: functional, cell-based
Overview of recorded ED50 for various compounds
Number in µM, nothing else.

Worked set:
[
  {
    "smiles structure": "S=C(NCCc1ccccc1)Nc1ccc(Br)cn1",
    "recorded endpoint": "ED50",
    "reported value": 0.05
  },
  {
    "smiles structure": "COc1ccc(Br)cc1CCNC(=S)Nc1nccs1",
    "recorded endpoint": "ED50",
    "reported value": 0.05
  },
  {
    "smiles structure": "CCOc1cccc(F)c1CCNC(=S)Nc1ccc(Br)cn1",
    "recorded endpoint": "ED50",
    "reported value": 0.02
  },
  {
    "smiles structure": "Fc1ccc(CCNC(=S)Nc2nccs2)cc1",
    "recorded endpoint": "ED50",
    "reported value": 3.3
  },
  {
    "smiles structure": "Cc1ccc(NC(=S)NCCc2c(F)cccc2F)nc1",
    "recorded endpoint": "ED50",
    "reported value": 0.01
  }
]

q: Data request, read-out ED50, for CC(C)Oc1cccc(CCNC(=S)Nc2nccs2)c1
a: 0.4

q: Consider next the compound S=C(NCCc1ccccc1)Nc1ncc(Cl)s1 in the same way.
a: 2.7

q: Consider next the compound CC(C)=CCN1Cc2cc(Cl)cc3[nH]c(=S)n(c23)C[C@@H]1C in the same way.
a: 0.25

q: Consider next the compound CCc1cc(NCc2nc3c(Cl)ccc(Cl)c3o2)c(O)nc1C in the same way.
a: 0.065

The reported numbers originate from ChEMBL document CHEMBL1128592.
